The values you see were collected from PubChem BioAssay (NCI).

Tested on: SF-268 CNS
procedure_details: NCI tumour cell line growth inhibition, 48 h
assay_readout: TGI

For the molecule shown here, CCO/C=N\C1=C(C#N)SC2=N/C(=C\c3ccco3)C(=O)N21 , give the reported TGI.
> 100 µM

Consider next the molecule O=[N+]([O-])c1ccc(-c2ccc([C@H]3CC(c4cc(F)c(Cl)cc4Cl)=NN3)o2)cc1 in the same way.
> 100 µM

Consider next the molecule C#CC[C@]12CC(=O)CC[C@H]1CC1(C2)OCCO1 in the same way.
> 100 µM

Consider next the molecule CC(C)C1CC(CO)(CNc2nc(N)nc(Cl)c2C=O)C1 (stereo not given) in the same way.
> 23.7 µM

Consider next the molecule CC1CC(=O)C(CC(=O)O)[C@H]1C(C(=O)C(=O)Nc1cc(Cl)ccc1Cl)[N+](=O)[O-] (stereo not given in full) in the same way.
> 100 µM

* * *

Tested on: HCC-2998 colon
procedure_details: NCI tumour cell line growth inhibition, 48 h
assay_readout: TGI (µM)
Expressed in µM, but write only the number.

For the compound shown here, C=C1C(=O)O[C@H]2[C@H]1CC/C(COC(=O)NCc1ccc(Cn3c(=O)sn(CCCI)c3=O)cc1)=C\CC[C@@]1(C)O[C@@H]21 , give the reported TGI.
3.71

Consider next the compound Nc1nc(NCc2ccccc2)cc(NCc2ccccc2)n1 in the same way.
24.6

Consider next the compound CC(=O)[O-].O=C([CH-]C(=O)c1ccccc1)c1ccccc1.O=C([CH-]C(=O)c1ccccc1)c1ccccc1.[Dy+3] in the same way.
36.2

Consider next the compound O=C(c1ccco1)c1c(C(F)(F)F)n([O-])c2cc(Cl)c(Cl)cc2[n+]1=O in the same way.
1.26

Consider next the compound CC1(C)OC2OC(/C=C/[N+](=O)[O-])C3OC(C)(C)OC3C2O1 (centres undefined) in the same way.
31.1

Consider next the compound O=[N+]([O-])c1cccc(-c2ccc([C@H]3CC(c4ccc(Cl)cc4)=NN3)o2)c1 in the same way.
38.1

Consider next the compound COc1ccc(CC(COS(=O)(=O)c2ccc(C)cc2)NS(=O)(=O)c2ccc(C)cc2)cc1 (centres undefined) in the same way.
29.5

Consider next the compound COc1cnc2c(c1)C(=O)c1c-2n(CCCN2CCNCC2)c(=O)c2cc(F)ccc12 in the same way.
2.56

Consider next the compound CCOC(=O)n1c(=O)nc2c3c(ncn21)Oc1c(c(-c2ccccc2)nn1-c1ccccc1)C3c1ccc(Cl)cc1 (centres undefined) in the same way.
1.97

* * *

System: KM12 colon
procedure_details: NCI tumour cell line growth inhibition, 48 h
assay_readout: TGI (µM)
Expressed in µM, but write only the number.

For the compound shown here, Cc1ccc(CNc2ccc(Cl)cc2NCc2ccc(C)c(O)c2)cc1O , give the reported TGI.
13.8

Consider next the compound CSc1ccc(/C=C2\N=C(c3ccccc3)N(NC(=O)c3c(Cl)c(Cl)c(Cl)c(Cl)c3-c3nc4ccccc4[nH]3)C2=O)cc1 in the same way.
65.6

Consider next the compound CCOC(=O)n1c(=O)nc2c3c(ncn21)Oc1c(c(-c2ccccc2)nn1-c1ccccc1)C3c1ccc(Cl)cc1 (configuration not stated) in the same way.
2.89

Consider next the compound COc1cc(C(=O)N[C@@H]2CCCN(C)C2)ccc1Nc1ncc2c(n1)N(C1CCCC1)CC(C)(C)C(=O)N2C in the same way.
18.3

Consider next the compound CN(C)CCCCN1c2ccccc2Sc2ccc(N=[N+]=[N-])cc21 in the same way.
8.76

Consider next the compound N#CSc1c[nH]c2cccc(/C=C/C(=O)/C=C(O)/C=C/c3cccc4[nH]cc(SC#N)c34)c12 in the same way.
0.998

Consider next the compound COc1cc(-c2nn(-c3cccc(NC(=O)NCCNC(=O)c4ccccc4)c3)cc2-c2ccncc2)ccc1Cl in the same way.
40.2

Consider next the compound CS(=O)(=O)Sc1ccc(Cl)cc1 in the same way.
19.7

Consider next the compound COc1cc2nc(NC3CCC3)nc(NC3CCN(C(C)C)CC3)c2cc1OC in the same way.
14.7
